test: Aqueous solubility; type: physicochemical; conditions: aqueous medium (not further specified); room temperature
measure.name: solubility (µg/mL)

1. COc1ccc2c(c1)c(/C=C1\C(=O)Nc3ccc(S(=O)(=O)N(C)C)cc31)cn2C [Compound 2a25] ... 3.2

---

biological target: TrkA (Rattus norvegicus, UniProt P35739); construct: endogenous in cells; test: PC-12/luc/Elk1 luciferase reporter cellular assay (NGF-induced); settings: 50 ng/ml NGF, 18 h treatment
Sequence (P35739 33-799): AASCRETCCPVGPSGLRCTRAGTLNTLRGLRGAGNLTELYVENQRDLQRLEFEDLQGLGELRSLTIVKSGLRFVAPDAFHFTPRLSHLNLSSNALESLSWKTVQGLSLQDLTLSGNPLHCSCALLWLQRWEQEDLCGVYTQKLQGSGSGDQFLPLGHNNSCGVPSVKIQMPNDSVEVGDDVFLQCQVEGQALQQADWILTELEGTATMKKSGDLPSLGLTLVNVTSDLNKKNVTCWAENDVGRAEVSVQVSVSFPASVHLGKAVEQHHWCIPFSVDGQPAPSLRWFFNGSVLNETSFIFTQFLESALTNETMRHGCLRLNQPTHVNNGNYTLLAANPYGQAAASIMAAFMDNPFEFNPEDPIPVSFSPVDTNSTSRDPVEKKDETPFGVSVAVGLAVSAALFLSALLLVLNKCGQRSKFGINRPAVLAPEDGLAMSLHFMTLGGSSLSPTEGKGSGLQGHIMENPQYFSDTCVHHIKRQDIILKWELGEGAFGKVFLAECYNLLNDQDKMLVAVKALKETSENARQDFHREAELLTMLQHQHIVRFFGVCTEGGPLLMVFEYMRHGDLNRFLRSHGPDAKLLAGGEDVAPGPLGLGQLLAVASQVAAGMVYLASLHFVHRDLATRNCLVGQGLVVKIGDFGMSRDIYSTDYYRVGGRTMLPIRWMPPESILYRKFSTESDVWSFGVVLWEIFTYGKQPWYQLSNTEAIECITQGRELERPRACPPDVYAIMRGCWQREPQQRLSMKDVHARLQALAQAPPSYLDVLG
Entries and their IC50
measure.name: IC50

1. COc1ccc2c(c1)c(/C=C1\C(=O)Nc3ccc(S(=O)(=O)N(C)C)cc31)cn2C [Compound 2a25] ... ≤ 0.1 µM
2. COc1ccc2[nH]cc(/C=C3\C(=O)Nc4ccc(S(N)(=O)=O)cc43)c2c1 [Compound 2a23] ... ≤ 0.1 µM
3. Cn1cc(/C=C2\C(=O)Nc3ccc(S(N)(=O)=O)cc32)c2ccccc21 [Compound 2a21] ... ≤ 0.1 µM
4. CN(C)S(=O)(=O)c1ccc2c(c1)/C(=C/c1cn(C)c3ccc(O)cc13)C(=O)N2 [Compound 3a25] ... ≤ 0.1 µM
